Biological target: human JAK1 (a.a. 837-1142) (Homo sapiens)
Construct: human JAK1 (a.a. 837-1142); His tag (N); made in house; host or cells: insect cells (baculovirus)
Sequence (P23458 849-1154): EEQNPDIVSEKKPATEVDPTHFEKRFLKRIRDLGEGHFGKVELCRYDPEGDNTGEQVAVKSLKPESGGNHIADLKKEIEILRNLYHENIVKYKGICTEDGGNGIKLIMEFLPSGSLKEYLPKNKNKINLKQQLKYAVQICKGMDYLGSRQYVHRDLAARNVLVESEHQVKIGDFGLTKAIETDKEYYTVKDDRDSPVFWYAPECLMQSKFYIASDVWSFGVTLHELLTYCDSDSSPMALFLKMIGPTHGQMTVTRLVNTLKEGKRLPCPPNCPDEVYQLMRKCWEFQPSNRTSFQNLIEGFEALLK
Test: In vitro JAK kinase assay (HTRF, phosphorylation of a biotinylated peptide), JAK1
Type: biochemical
Conditions: Table B1; read-out: JAK1 IC50
Structures can show the parent of a compound that is named as a salt.
reported.metric: IC50 (nM)

compound="O=C(Nc1ccc2cc1CCc1cccc(c1)Nc1ncc(Cl)c(n1)N2)Nc1ccccc1C(F)(F)F [Example B111, trifluoroacetate]" unit_tag=nM result_value=3.7
compound="O=S(=O)(Nc1ccc2cc1CCc1cccc(c1)Nc1ncc(Cl)c(n1)N2)c1ccccc1Cl [Example B137, trifluoroacetate]" unit_tag=nM result_value=0.42
compound="Clc1cnc2nc1Nc1ccc(-c3cn[nH]c3)c(c1)CCc1cncc(c1)N2 [Example B350, tris(trifluoroacetate)]" unit_tag=nM result_value=90
compound="N#Cc1ccc(C(=O)N2CC[C@H](NC(=O)Nc3ccc4cc3CCc3cccc(c3)Nc3ncc(Cl)c(n3)N4)C2)cc1 [Example B235, trifluoroacetate]" unit_tag=nM result_value=6

1 = Cc1cc(C(=O)Nc2cc3cc(c2)Nc2nc(ncc2Cl)Nc2cccc(c2)CC3)no1 [Example B205, trifluoroacetate]
2 = CC(C)NC(=O)NCCNC(=O)Nc1ccc2cc1CCc1cccc(c1)Nc1ncc(Cl)c(n1)N2 [Example B188, trifluoroacetate]
(Q) Choose between 1 and 2 : whose measured IC50 value is numerically larger? Answer by quoting the chosen item's label.
(A) 1
(1: 188 nM, 2: 4 nM)

I = CC(=O)N1CC[C@@H](NC(=O)Nc2ccc3cc2CCc2cccc(c2)Nc2ncc(Cl)c(n2)N3)C1 [Example B177, trifluoroacetate]
II = O=C(Nc1ccc2cc1CCc1cncc(c1)Nc1ncc(Cl)c(n1)N2)N[C@H]1CCNC1 [Example B25, trihydrochloride]
(Q) Choose between I and II : whose measured IC50 value is numerically larger? Answer by quoting the chosen item's label.
(A) II
(II: 12 nM, I: 3.1 nM)

---

Molecular target: TYK2 (Homo sapiens)
Sequence (P29597 whole entry): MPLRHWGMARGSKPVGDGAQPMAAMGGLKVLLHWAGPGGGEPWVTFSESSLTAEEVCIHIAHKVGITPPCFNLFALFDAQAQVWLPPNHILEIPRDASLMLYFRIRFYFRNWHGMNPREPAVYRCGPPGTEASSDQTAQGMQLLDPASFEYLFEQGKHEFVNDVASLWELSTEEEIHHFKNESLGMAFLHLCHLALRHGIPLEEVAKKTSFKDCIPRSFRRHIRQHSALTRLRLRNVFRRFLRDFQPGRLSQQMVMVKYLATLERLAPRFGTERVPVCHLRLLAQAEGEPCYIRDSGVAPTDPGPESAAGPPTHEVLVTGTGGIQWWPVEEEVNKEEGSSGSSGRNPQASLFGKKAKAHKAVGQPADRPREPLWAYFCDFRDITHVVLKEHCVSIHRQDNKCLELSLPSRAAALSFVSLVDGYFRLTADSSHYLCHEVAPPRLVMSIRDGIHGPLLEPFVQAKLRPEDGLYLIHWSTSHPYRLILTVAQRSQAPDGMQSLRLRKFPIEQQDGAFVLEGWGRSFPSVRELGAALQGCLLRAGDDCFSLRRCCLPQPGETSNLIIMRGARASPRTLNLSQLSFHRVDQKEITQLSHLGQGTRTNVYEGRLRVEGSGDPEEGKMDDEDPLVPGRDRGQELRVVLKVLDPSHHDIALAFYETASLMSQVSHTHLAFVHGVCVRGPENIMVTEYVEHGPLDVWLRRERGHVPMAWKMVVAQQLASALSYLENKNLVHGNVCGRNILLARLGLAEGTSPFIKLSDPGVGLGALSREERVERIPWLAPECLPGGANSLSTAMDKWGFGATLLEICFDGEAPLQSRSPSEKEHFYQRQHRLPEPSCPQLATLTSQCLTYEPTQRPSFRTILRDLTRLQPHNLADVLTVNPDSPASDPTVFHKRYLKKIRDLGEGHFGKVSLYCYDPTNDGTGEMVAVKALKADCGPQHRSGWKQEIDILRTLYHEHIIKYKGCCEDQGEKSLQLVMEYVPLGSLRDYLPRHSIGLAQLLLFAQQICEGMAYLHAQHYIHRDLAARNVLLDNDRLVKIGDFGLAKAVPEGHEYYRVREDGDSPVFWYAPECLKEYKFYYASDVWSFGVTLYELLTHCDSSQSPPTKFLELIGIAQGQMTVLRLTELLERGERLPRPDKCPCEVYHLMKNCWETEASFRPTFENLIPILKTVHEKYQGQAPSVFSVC
Assay: TYK2 kinase inhibition (Table A1)
Format: biochemical
Counter-ions that a name gives are not always drawn.
reported.metric: IC50 (nM)

I = O=C(Nc1ccc2cc1CCc1cccc(c1)Nc1ncc(Cl)c(n1)N2)C1CCN(C(=O)c2ccccc2)CC1 [Example A30, trifluoroacetate]
II = O=C(Cc1c[nH]c2ccccc12)Nc1ccc2cc1CCc1cccc(c1)Nc1ncc(Cl)c(n1)N2 [Example C29, bis(trifluoroacetate)]
III = NS(=O)(=O)N1CCC(CC(=O)Nc2ccc3cc2CCc2cncc(c2)Nc2ncc(Cl)c(n2)N3)CC1 [Example A78, bis(trifluoroacetate)]
IV = O=C(Nc1ccc2cc1CCc1cccc(c1)Nc1ncc(Cl)c(n1)N2)[C@@H]1CCN(C(=O)c2ccccc2)C1 [Example A52, trifluoroacetate]
(Q) Order these by IC50, descending, and give the full ranking. Give the labels in the order specified.
(A) II, I, IV, III
(II: 227 nM, I: 84 nM, IV: 15 nM, III: 0.3 nM)

---

Target: human JAK3 (a.a. 781-1124) (Homo sapiens)
Construct: JAK3 (a.a. 781-1124); His tag (N); made in house; host or cells: insect cells (baculovirus)
Sequence (P52333 781-1124): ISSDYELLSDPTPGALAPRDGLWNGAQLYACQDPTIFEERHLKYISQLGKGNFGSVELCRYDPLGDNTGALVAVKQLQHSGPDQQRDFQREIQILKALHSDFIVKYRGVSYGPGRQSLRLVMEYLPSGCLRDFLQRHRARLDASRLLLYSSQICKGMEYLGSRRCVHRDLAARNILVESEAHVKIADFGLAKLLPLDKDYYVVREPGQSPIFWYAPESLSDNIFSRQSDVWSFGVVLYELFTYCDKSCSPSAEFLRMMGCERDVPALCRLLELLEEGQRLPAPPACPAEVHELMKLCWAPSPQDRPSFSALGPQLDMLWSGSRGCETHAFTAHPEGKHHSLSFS
Assay: In vitro JAK kinase assay (HTRF, phosphorylation of a biotinylated peptide), JAK3
Format: biochemical
Conditions: method AA1 (3 μM ATP) or AA2 (1000 μM ATP), not stated per value
pIC50: −log10 of the molar value. Counter-ions that a name gives are not always drawn.
pIC50: recorded values

Below, 3 compounds whose answers are already recorded.
compound="N#Cc1c(N2CCC(CC(=O)Nc3ccc4cc3CCc3cncc(c3)Nc3ncc(Cl)c(n3)N4)CC2)cccc1C(F)(F)F [Example A235, tris(trifluoroacetate)]" result_value="< 6.40"
compound="N#Cc1ccc(N2CCC(CC(=O)Nc3ccc4cc3CCc3cncc(c3)Nc3ncc(Cl)c(n3)N4)CC2)cc1 [Example A221, tris(trifluoroacetate)]" result_value="< 6.70"
compound="N#Cc1ccc(NC(=O)N2CCC(CC(=O)Nc3ccc4cc3CCc3cncc(c3)Nc3ncc(Cl)c(n3)N4)CC2)cc1 [Example A143, bis(trifluoroacetate)]" result_value="< 7.00"

Proceeding to the next compound to report its pIC50.
Form field pIC50, entry Cc1oncc1S(=O)(=O)N1CCC(CC(=O)Nc2ccc3cc2CCc2cccc(c2)Nc2ncc(Cl)c(n2)N3)CC1 [Example A210, trifluoroacetate] : < 6.70
